MEASUREMENT TARGET: T1, MLL3_(PHD2/3) D372N (human, UniProt Q8NEZ4 342-439, D372N)
T1 sequence: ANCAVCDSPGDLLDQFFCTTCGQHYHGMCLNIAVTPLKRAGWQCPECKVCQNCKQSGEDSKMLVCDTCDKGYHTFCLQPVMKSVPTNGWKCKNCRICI
READOUT: pKd
Interpret pKd as the negative base-10 log of the concentration measured in mol/L.

If you can, please state the reported pKd value of NRTGARTLADIKAKAQLVKAQ (peptide, UniProt Q76L83 650-670, looked up, also called ASXL2 (aa 650-670); MBH of ASXL2; source: synthetic peptide (SynPeptide)) [ASXL2 peptide (residues 650-670 of ASXL2)] .
5.05

From: paper PMC11161652
